The measurements presented in this section are drawn from PubChem BioAssay (NCI).

- PROTOCOL DESCRIPTION: NCI Yeast Anticancer Drug Screen. Data for the cln2 rad14 strain (AID 165);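 note: 0% = growth equal to vehicle treated cultures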
- RECORDED CONDITIONS: S. cerevisiae cln2 rad14 strain, at 50.0 µM, active compounds read high
- Experimental: Growth inhibition of yeast strains with defined genetic alterations is measured as a screen for potential anti-cancer activity. Selected strains with alterations in DNA damage repair or cell cycle control were exposed to compounds and growth inhibition was measured relative to vehicle treated controls. The strain used in this assay is cln2 rad14
About 79,000 compounds went through this panel and 15% of them were active in at least one assay; those are over-represented in the sample as a whole. Where a SMILES comes first, the peptide text is derived from it. [ ]: non-standard residue; d: D form. The star is where a group is joined. Ac5c = NC1(C(=O)O)CCCC1; Cbz = O=C(OCc1ccccc1)*
Listed here are molecules together with their documented growth inhibition.
METRIC: growth inhibition (%)

1. CCOC(=O)c1ccc(C#N)cc1    -7.6
2. CCC1CCN(CC)CC1    1.8
3. S=C(N/N=C/c1cccc2ccccc12)Nc1c(Cl)cccc1Cl    55.6
4. COc1ccccc1NC(=O)CC(=O)N1N=C(C)C(N=Nc2ccc(S(N)(=O)=O)cc2)C1=O (stereo not drawn)    12.8
5. O=C(O)C1CCCCC1C(=O)NCc1ccco1 (stereo not drawn)    3.7
6. COC(=O)c1ccc(NC(C)=O)c([N+](=O)[O-])c1    -21.9
7. COc1cc2c(cc1OC)C1Cc3ccc(OC)c(OC)c3C[N+]1([O-])CC2 (stereo not drawn)    9.6
8. COn1c2ccccc2c2c1cc1ccccc1[n+]2[O-]    -52.5
9. Cc1onc(-c2c(F)cccc2Cl)c1C(=O)Nc1cc2cc([N+](=O)[O-])ccc2oc1=O    8.15
10. OC1CC2C3CCC(C3)C2C1O (stereo not drawn)    -7.45
11. O=Cc1c2c(cc3c1CC1(C3)Cc3cc4c(c(C=O)c3C1)CCC4)CCC2    3.7
12. O=C1NCC2(CCCCCC2)O1    4.95
13. O=C1NC(=O)C2C1C1C=C3c4ccccc4N(c4ccccc4)C32[C@H]2C(=O)NC(=O)[C@@H]12 (stereo partly drawn)    24.9
14. Cc1ccc(N=Nc2c(O)ccc3n[nH]nc23)cc1    -46
15. Cc1ccc(S(=O)(=O)OC2C3OC(C)(C)OC3OC2C2CSC(=S)S2)cc1 (stereo not drawn)    -12.8
16. O=C1c2cc(Cl)ccc2NC(O)c2cccn21 (stereo not drawn)    -20.9
17. CC(C)CC(CC(C)C)OB(OC(CC(C)C)CC(C)C)OC(CC(C)C)CC(C)C    10.9
18. Cc1cccc(Oc2ccc(C(F)(F)F)cc2[N+](=O)[O-])c1C    -45.4
19. COc1cc2c(cc1OC)C(c1c(Cl)cccc1Cl)=NCC2    4.25
20. COc1ccccc1C(=O)c1ccccc1    -14.9
21. COC(=O)/C=C(\S/C=C(/c1ccccc1)N1CCn2c(C(=O)c3ccccc3)c(C(=O)OC)c(C(=O)OC)c21)C(=O)OC    11.4
22. CN1CCN(CCCN2CC(=O)N3Cc4ccccc4CN3C(=O)C2)CC1    1
23. C#CC(NC(C)(C)CC(C)(C)C)C(C)C (stereo not drawn)    6.8
24. CCOc1ccccc1NC(=O)C(=O)Cc1nc2ccccc2s1    -6.75
25. CN=Cc1ccccc1O.CN=Cc1ccccc1O.[Cu+2]    -73.8
26. O=C(c1ccco1)N(C(=S)N1CCN(c2ccccc2)CC1)C1CCCCC1    36
27. c1ccc2cc(SSc3ccc4ccccc4c3)ccc2c1    0.1
28. CCOc1cc(CC[N+](C)(C)C)c2c(ccc3ccc(OC)c(OC)c32)c1OC    13.5
29. O=C(O)CNC(=O)C1(NC(=O)CNC(=O)OCc2ccccc2)CCCC1 (Cbz-Gly-[Ac5c]-Gly-OH)    -2.3
30. O=[N+]([O-])c1cccc(S/N=C/c2c(O)ccc3ccccc23)c1    72.8
31. COC(=O)C1O[C@H]1c1cccc[n+]1[O-] (mixture of isomers)    11.8
32. O=C1Nc2ccccc2C2=C3CCCCC3=NNC12 (stereo not drawn)    68.2
33. CCCC(=O)OCC(O)CO (stereo not drawn)    18.5
